- SYSTEM UNDER TEST: Cathepsin-L (Homo sapiens, UniProt P07711)
- Construct: purchased BPS Bioscience 79591
- Sequence (P07711 114-333): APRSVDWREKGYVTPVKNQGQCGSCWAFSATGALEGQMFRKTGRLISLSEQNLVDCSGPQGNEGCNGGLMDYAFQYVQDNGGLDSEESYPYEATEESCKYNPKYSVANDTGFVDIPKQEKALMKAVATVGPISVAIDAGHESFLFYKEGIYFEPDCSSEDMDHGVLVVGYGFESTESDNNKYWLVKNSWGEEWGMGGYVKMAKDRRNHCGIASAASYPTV
- PROCEDURE SUMMARY: Cathepsin-L Inhibitor Screening Kit (Fluorometric)
- Type: biochemical
- CONDITION DESCRIPTION: IC50 (M), Cathepsin-L inhibition, fit values given in Figure 6
Peptide text beside a SMILES is read from it. * marks the point of attachment. Cbz = O=C(OCc1ccccc1)*
ENDPOINT: IC50

Noted for CC(C)C[C@@H](C=O)NC(=O)[C@H](CC(C)C)NC(=O)[C@H](CC(C)C)NC(=O)OCc1ccccc1 [MG-132] (Cbz-Leu-Leu-Leu-aldehyde) : its IC50 reads 1.55e-10 M

* * *

- SYSTEM UNDER TEST: Cathepsin-L (Homo sapiens, UniProt P07711)
- Construct: purchased BPS Bioscience 79591
- PROCEDURE SUMMARY: Cathepsin-L Inhibitor Screening Kit (Fluorometric)
- Type: biochemical
- CONDITION DESCRIPTION: IC50, Cathepsin-L inhibition, Cathepsin-L 0.01 ng/μL, substrate 5 μM, 30 min incubation at RT
Peptide text beside a SMILES is read from it. * marks the point of attachment. Cbz = O=C(OCc1ccccc1)*
ENDPOINT: pIC50
Scale explanation: pIC50 corresponds to minus log10 of a concentration expressed in moles per litre.

Looking up CC(C)C[C@@H](C=O)NC(=O)[C@H](CC(C)C)NC(=O)[C@H](CC(C)C)NC(=O)OCc1ccccc1 [MG-132] (Cbz-Leu-Leu-Leu-aldehyde) , I found its pIC50 recorded as 9.82

Origin of the recorded values: paper PMC8583849
